experiment: NCI Yeast Anticancer Drug Screen. Data for the bub3 strain (AID 167)
condition_set: S. cerevisiae bub3 mutant strain, at 50.0 µM, stronger effect = higher value
The panel holds about 79,000 compounds, 15% with a hit somewhere; the sample as a whole holds those more often.
observed_property: growth inhibition (%)
Give bare numbers, in %.

{"columns": ["molecule", "growth inhibition / %"],
 "data": [
  ["O=[N+]([O-])c1ccc(N/N=C(\\Cc2ccccc2)c2ccccc2)c([N+](=O)[O-])c1", -5.75]
]}

Would you mind listing growth inhibition for each of the following molecules?
1. C(=NCCSSCCN=Cc1ccccc1)c1ccccc1
2. COc1ccccc1NC(=O)Nc1ccccc1

-12.1
-4.65
